System: Fibroblast
protocol details: Multiplex assay against human fibroblast
Format: toxicity, cell-based
protocol conditions: 12 h, 1 µM, compound concentration 1 uM
measured parameter: Population Normal (%)
Reply with just the number (in %).

Exam item: Please tell me: Population Normal (%) of O=C(Nc1ccccc1Br)N[C@@H]1CCN(c2ccc(C(F)(F)F)cn2)C1 , system Fibroblast?
Marked response: 100

Exam item: Value wanted: Population Normal (%) (Fibroblast) of entry Clc1ccccc1C(c1ccccc1)(c1ccccc1)n1cccn1
Marked response: 100

Exam item: # query: Population Normal (%) | item CCC(=O)OCC(=O)[C@@]1(OC(=O)CC)[C@@H](C)C[C@H]2[C@@H]3CCC4=CC(=O)C=C[C@]4(C)[C@@]3(Cl)[C@@H](O)C[C@@]21C [BECLOMETHASONE DIPROPIONATE] | system: Fibroblast
Marked response: 96

Exam item: Hi! What's the reported Population Normal (%) for CC(C)C[C@H](NC(=O)c1cc2ccccc2s1)C(=O)N1CCN(C(=O)[C@H](CO)NS(=O)(=O)c2ccc(Cl)cc2Cl)CC1 on Fibroblast?
Marked response: 100
